Property: inhibition; scope: individual molecules
# Organism: Bos taurus
# test_summary: Inhibition of bovine kidney TNAP relative to control
# Set-up: concentration or dose not given beside the values
# experimental_context: concentration not given here
Your answer is read as %, so omit the unit and give the number.

1. CCOC(=O)c1s/c(=N\C(=O)c2ccccc2)oc1C = 39.1
2. CCOC(=O)c1s/c(=N\C(=O)c2cccc(Cl)c2)oc1C = 45.3
3. CCOC(=O)c1s/c(=N\C(=O)c2cccc(C)c2)oc1C = 30.9

Input line: inhibition for `CCOC(=O)c1s/c(=N\C(=O)c2ccc(Cl)cc2)oc1C` ?
Output line: 48.3

Input line: inhibition for `CCOC(=O)c1s/c(=N\C(=O)Cc2ccccc2)oc1C` ?
Output line: 41.4

Hello, the source for this data is ChEMBL document CHEMBL4622867, in case you need it.
